folding stability dG unfold values for the sequences below.
PROTOCOL DETAILS: folding stability dG unfold from chymotrypsin proteolysis; higher = more stable
RECORDED METRIC: folding stability dG unfold (kcal/mol)

1) SAGGSAGGSLEKIKEALKKAGYPPENVVIEVKTLPNGEIVITVKYNGKEIPKEIVEEAIKKLKSAGGSAGGS [r12_175_JUSTAS] ... 3.72
2) SAGGSEKKVLVLKFRHPENDKPLFSVRIVLEKPPEDSYKAKIELLDLPEDYVLSPEAIKAILEALKSAGGSA [r2_7_TrMRF] ... 2.58
3) SAGGSAGGSAGGMYIPGDLVEWVSPVGDKWRVGLIGKPQTFDWKDIPAPSNENIVFVPGSAGGSAGGSAGGS [r10_665_TrMRF] ... -0.392
4) SAGGSAMKKLTIELPDPDITPEEAEKRAREIAEKIAEGNYKVEEIKVEPVDPEKNVYRGTVIIKELSAGGSA [r15_96_JUSTAS] ... 0.365
5) MTLLIPLPPAFPDLTPEQVLDLLRELFLSPDEEATAEENPETGSVTVTVRRGDEEYVFTFYPDGYLVLEPGS [r1_131_TrMRF] ... 2.8
6) SAGGLLVVLPPDLTPEELREKALELAELARKAGDFEVERIELVRDEETDRPYAVLVIRDPRTGKILVASAGG [r13_669_TrMRF] ... 1.05
7) SAGGSAMTYTITLKTPGSQSLELSLDEKLKLLSQTIDPNTGVTTLTLEGDPEEAKKLEQEIKEKLASAGGSA [r15_662_JUSTAS] ... 1.66

###

PROTOCOL DETAILS: folding stability dG unfold from chymotrypsin proteolysis; higher = more stable
RECORDED METRIC: folding stability dG unfold (kcal/mol)

1) SAGGSAGGSAGGDKNGKKELRPEVKIKVKIEAEIEPFRYPNNGMPMWILKISIEITSIDSAGGSAGGSAGGS [r10_877_TrROS] ... 4.75
2) SAGGSAPPNLQIDIQINPGHGYIEVSVQIPGRHVKASAKLTEPGQLKMDIEFPGNGKEIDITIPISSAGGSA [r15_837_TrROS] ... 2.61
3) SAGMVEITVEVKEDGTVIVTIPATSPEEALEVAEEVARELAKQFGAEHTEFVIEPVPDDTLVLLVPIKKSAG [r5_772_TrMRF] ... 1.26
4) SAGGSAGSMSPEEVAERIRQEALARDPNWTVEVTPLPGPRPVLRLEIYRVDPNSDSVTPVSTLVVGSAGGSA [r15_682_JUSTAS] ... 0.516

###

PROTOCOL DETAILS: folding stability dG unfold (combined trypsin and chymotrypsin); higher = more stable
RECORDED METRIC: folding stability dG unfold (kcal/mol)

1) SAGGSAGGMTIPLPGSVEEIQELLGGPIKEYTEEAPGSGTLTLPNGTPITVERESPELLKEVLRSAGGSAGG [r6_19_JUSTAS] ... -0.593
2) SAGGKTVVIEAESLEEALAAIEALPPDVKKVVIFNKETGVLVEVTVDPKTGEIKEIKVYKIDPEKGKLSAGG [r13_945_TrROS_Hall] ... 2.54
3) SAGGSAGGSAGPMWRIEVENPNGRTPEIWIPPNMDTPEELVDELKKHFPGLKKVKIEPYPSAGGSAGGSAGG [r11_311_TrROS] ... -0.391

###

PROTOCOL DETAILS: folding stability dG unfold from chymotrypsin proteolysis; higher = more stable
Threshold check on folding stability dG unfold: at or above 2 kcal/mol gives yes, strictly below gives no.

1) SDKLAKLLEDELEKAGYEVVSVEVRYDPEKGLLYVNALVRRKDDPTWYRVRAVYNPETDELLEVKIEPLPSA [r9_814_TrMRF] ... yes
2) SAGAKEITAEELAEIVREFAAALPPDVKEPVTVEITVPLEDGRVLVFKVTVERSPDGVKATVEVSPGASAGG [r19_220_TrMRF] ... yes
3) SAGGSAGMVVEPREVVIKLKPPNGPETTLEVELVEVEPDSLVLRNGDTPIVLPPDAEDVEILEVTGSAGGSA [r15_510_JUSTAS] ... no
4) SAGAKVTVEPVKVEPLPNGEVKVTAKVTIYDPNTTKPTEIEVTGTYKLHPNGKPVKPETIVAEAIKKAASAG [r5_604_TrMRF] ... no
5) SNPENIDKITFTFRWPDGNPMEIEIDPDGTVEYEYPNGWEIEITIDPDDGKLTIEMTFPNGRPQEQKIPISA [r9_99_TrROS] ... yes
6) SAGGGMSTLVRLPPGGVEEREVPPGTEADLNAEFSPESKLVVRTFDPATGRWTETVYEPGGVPTVLSSSAGG [r13_74_JUSTAS] ... yes
7) SMKEGIEAAIDELKEALEKGEGEVRVVLRFEGFVLEITIKPKGYKIEDIEIEPLPDDIPFIREREEVPPESA [r9_308_TrMRF] ... no

###

PROTOCOL DETAILS: folding stability dG unfold from trypsin proteolysis; higher = more stable
Give Satisfied when the value for folding stability dG unfold is at least 7 kJ/mol. Give Not satisfied when it is less.

1. SAGGSAGGGKPKVEIEYNGKTYEFDSLEELVAEAKEPVRIRLPNGEEIELSREDLKNLTVRLVPSAGGSAGG [r6_684_TrROS_Hall] ... Not satisfied
2. SAGGSAGGSEEILKALGVEPGDEVEIEMTPEELEELLALPGVEPVRVEERPDGRLRVRIRILPSAGGSAGGS [r12_750_TrROS_Hall] ... Satisfied
3. SAGGSAGGSAMVVPRTYRVPPGLTVEEVADYLRAKDPNVIDATAERRPDGYLLVTVLVRLDSAGGSAGGSAG [r3_371_TrMRF] ... Not satisfied
4. SAGGSADKITVRVMPSPDGMYRVKIWHPGKKREYWMNPDDPDKMLEEFADEINPDRPIKVEVEPYKSAGGSA [r15_925_TrROS] ... Not satisfied
5. SAGKKYKVKKKITLTLEDGSKITIEIVENEDGTVEIKITDSNGKTRTITIPKEKLENMSLEELLKLLKSAGG [r19_47_TrROS_Hall] ... Satisfied
6. SAGGSAGGSMTITKRSDGTIEVEIEISPEHPDVSPEEVKERVKKELEKKGIKTPVKITVKPVPESAGGSAGG [r6_480_JUSTAS] ... Not satisfied
7. SAGGSAGGSAGGMKTITIKVPSSVSFEEAKKKAEALFPKSIPVKVEYDPKTGTFTVTVESAGGSAGGSAGGS [r10_163_JUSTAS] ... Satisfied
8. SAGGSAGGGSMSVSYDPSTGNTITTTTTRSPTPLTTTTTTTTFPDGSTSTSTTTTAAPPPAPTTSAGGSAGG [r6_955_JUSTAS] ... Not satisfied
9. SAGGSAGGSKKKKKPKKKKYIVIKVDMSLEEVKKLISKLLGFEEGEKIEIVKVDPENKYIVIKSAGGSAGGS [r12_815_TrROS_Hall] ... Satisfied
10. SMKKIVLIYPESVSPEEAEKIAEEILKKLGLKKGSPVTILPLSEYESNPEMRARIEEAKKKGADIIIEVKSA [r9_1147_JUSTAS] ... Satisfied
11. SAGGSAGGSAGGSEVEVTTRPDGSIVARVRLPDGGVLTLVAEVGPDGSVVVTEASLSPESAGGSAGGSAGGS [r4_246_TrMRF] ... Not satisfied
12. SAGGSAGGSAGGKLIVLPVTSDEVFDFGDGPIPVPAGSIVVLEISPDGAKALVFSPEDLSAGGSAGGSAGGS [r10_353_TrMRF] ... Not satisfied
13. SAMIEILSIEEFTRPDGKKLYKITLKTPDPEKVLEKLIELGVKPEIDPNNPDILIAVFPYEKIEEILKESAG [r14_777_TrMRF] ... Satisfied

###

PROTOCOL DETAILS: folding stability dG unfold from trypsin proteolysis; higher = more stable
RECORDED METRIC: folding stability dG unfold (kcal/mol)

1) SAGGSIKIDEIEPDPPGDRVKVKMDIPVPMYDPNGKPKEPMPIKITAEARVDPENGELAINMDIEMSAGGSA [r2_220_TrROS] ... 2.73
2) SAGGSSIPRALLEAMPPDAELEFEDPSSNVRIKVTRLGPDRLEITTTVYPPGPDTPVSSETTTDPLASAGGS [r16_163_JUSTAS] ... 0.371
3) SAGGDVGLEEKAREIAEELREEISKKLGVNVKVTEVKVEYDPKTGKYTVTVTITLPGGETITITVPESAGGS [r8_372_JUSTAS] ... 3.85
4) SAKLTPEEIEELAEKLAKELAEKEGIEKVEVKVEKKEDGKVTVEIRFEKNKKTIRIEFENGEVKIVEIESAG [r14_925_TrROS_Hall] ... 2.62
5) SAGGKVSVEVRGNGPGSYVALWLPGPGTVIAREFEDGDRFDDLPEDAEPSRVVFFGYDGVPEEFELGSAGGS [r8_487_TrMRF] ... 0.32
6) SAGGSAVTVVTVELTSPGSTHTITIPASEVEGLSLEEIEARLKALPEVSEITLTRSELPPLNPSLASAGGSA [r2_282_JUSTAS] ... 0.788
7) SMVTVEEYEEDDEYYVKVYDPEKGVGVVFKTKDGVFKMPVTDPEALKEAIKASGIDVEIVEVRPLGPGLVSA [r9_1102_JUSTAS] ... 0.357
8) SAGGMVILVKDKDGRWRELSEEEIRRLAEELERRYNLEVEEVELEDGERYYLIRIEPPEVPGLSEEELSAGG [r13_790_TrROS_Hall] ... 1.97
9) SAGSMEALRALAEELAAEIAAAARAAGREVEVDITEVRPGEVRIRVTTTPPGGERTVEDIEIALPEERLSAG [r5_994_JUSTAS] ... 0.934
10) SMLNPDDPSVPERLVLVIPVPEEAVENGDFEVVRAKVEEAAEELEPLGWRVVSVEFDTETKEARLVLERPSA [r9_75_TrMRF] ... 3.76
11) SAKFRPVEIPFEIKLEEKDPEDGKKEEREFDIKVKIMVFPDNGMVFISIEFIELGRPITIMLPPGAPIISAG [r14_587_TrROS] ... 2.61
12) SAGGSAGGSAGGAMAPDEPVERVEVTYKTGRLTFPGKPVLKKEKVVLKFTLTVTDPALLSAGGSAGGSAGGS [r10_745_JUSTAS] ... -0.234
13) SAGGMPEKVVVLRIRVTIRRDGEEEEIELEIRLPEEGQELTEEQLLALLRELLPPGYEIRRVEIEELSAGGS [r16_407_TrROS_Hall] ... 4.63
14) SAGGSAGGSYYPIEDPNGMKIWVEPDPDNGMYRIRIQFPEGKKVERTFPPGMPLDDIPIKIKDSAGGSAGGS [r12_261_TrROS] ... 0.688
15) SAGGSMTISYDPSTGTVTITDPTVPLNTPRSITITFPGGETFTATLTPLPDNSATATYTVVPTAGASAGGSA [r2_89_JUSTAS] ... 1.26
16) SAGGPKVIVTDPNGVKHEFENLSIPELLSSLPKNGTPILKIEIPLFNPELGGEEPLELEFIFPPELFSAGGS [r16_806_TrMRF] ... 0.321
17) SAGGSAGGSAGDEKVPFFVRIIDPKNGKPVREFPVEVDPGKIKIPKELAENMPPDNVEIYSAGGSAGGSAGG [r11_725_TrROS] ... -0.824
18) SAGWKPITAEEIKKLVKEFAEKAPPGDKRPVTVEIRLPLPNGRHWVFTIKVERTDNNVKVKIEVQPYNSAGG [r19_220_TrROS] ... 2.49
19) SAGGSAGGSAGGMEKVTEVKPVATLPNGTVVTETLVTYTAPNGPEIGEEVVLTEDPVPKSAGGSAGGSAGGS [r10_941_JUSTAS] ... -0.942
20) SAGGSAGGSYKIDKIEVQPPPGGYYQATIEVEQVDPENGNPQRQEQEIPVPANDPKQIKDFLKSAGGSAGGS [r12_691_TrROS] ... -0.523
21) SAGGMTLTLTGPEEVVDDLLERLREEFPDVTVEPTAVSYDPATGLVTVPVRVVTEDPAVVAAIRAALSSAGG [r13_539_JUSTAS] ... 4.08
22) SAGKWVTIEIPIYIPGNPSQLKDLVEEIANILAAHGMKINVDVEVYPVDDYYIVKITVTVRMPPGMPIISAG [r5_217_TrROS] ... 3.75
23) SAGGSAGGSAGGMPVTVEVKEEELPGGEKVITVTVTYPDPVVETLEVKKLPPVDPNNKPSAGGSAGGSAGGS [r10_684_JUSTAS] ... 0.294
24) SMLVSVTFPLTLEPEEGDHTVRIYATAPDGSSLGEVTAPVKAVGDKVEFEVTATFPLPEGAVIERIETEPSA [r9_292_TrMRF] ... 0.681
25) PKEIIEFAKKNGFKVKIEPVKVGSEEKAKKLAEEIKKKNNGKVFIIKNPKTGEAVYRIEIYPLKVPKNKKLS [r1_179_TrMRF] ... 1.37
26) SAGGGSTVTTFDPSTGKTTVSIGTDPATGERTVTIVLKNGTPVTVPGPFPSVEEAEAAAAAAAAAAASAGGS [r16_319_JUSTAS] ... 0.762
27) SAGNAKEIAKKIKIRIREFFAERFGFPDVEIDSVTIKDVDPKNGRVRVNITWWWPNGRPWKHEIEIPVDSAG [r5_20_TrROS] ... 2.38
